Measured peptide exchange yield of individual entries
- tgt: T1, HLA-B*44:02 (human)
- T1 construct: Peptide-receptive MHC class I monomer made by UV cleavage of a UV-sensitive ligand
- assay.overview: UV ligand exchange ELISA; exchange yield grade
- Excerpt: Candidate peptides for T cell based therapies according to the present invention were further tested for their MHC binding capacity (affinity). The individual peptide-MHC complexes were produced by UV-ligand exchange, where a UV-sensitive peptide is cleaved upon UV-irradiation, and exchanged with the peptide of interest as analyzed. Only peptide candidates that can effectively bind and stabilize the peptide-receptive MHC molecules prevent dissociation of the MHC complexes. […]

Solved cases below.
REAGFQVKAY ... 50 to 75%
NEFPVIVRL ... 50 to 75%
AENAVSNLSF ... 20 to 50%

Q: Kindly indicate its recorded peptide exchange yield. Item: AESEDLAVHLY
Ans: 20 to 50%

Q: Kindly indicate its recorded peptide exchange yield. Item: EENKPGIVY
Ans: 20 to 50%

Q: Kindly indicate its recorded peptide exchange yield. Item: GELPAVRDL
Ans: 20 to 50%

Q: Kindly indicate its recorded peptide exchange yield. Item: EELFRDGVNW
Ans: 50 to 75%

Q: Kindly indicate its recorded peptide exchange yield. Item: VEIAEAIQL
Ans: 50 to 75%

Q: Kindly indicate its recorded peptide exchange yield. Item: HEIDGKALFL
Ans: 20 to 50%

Q: Kindly indicate its recorded peptide exchange yield. Item: AELLAKELY
Ans: 20 to 50%

Q: Kindly indicate its recorded peptide exchange yield. Item: FEVESLFQKY
Ans: 50 to 75%

Q: Kindly indicate its recorded peptide exchange yield. Item: KELEDLNKW
Ans: 50 to 75%

Q: Kindly indicate its recorded peptide exchange yield. Item: SEYADTHYF
Ans: 50 to 75%

Q: Kindly indicate its recorded peptide exchange yield. Item: TDKSFPNAY
Ans: 10 to 20%

Q: Kindly indicate its recorded peptide exchange yield. Item: KEKFPINGW
Ans: 50 to 75%

Q: Kindly indicate its recorded peptide exchange yield. Item: SDAQRPSSF
Ans: 10 to 20%
